Reference source for all entries: ChEMBL document CHEMBL5665443

Here, each record is paired with measured inhibition data.
# test-target: Methyl-CpG-binding domain protein 4 (Homo sapiens) (UniProt O95243)
# Sequence (O95243 whole entry, the tested form may be a part): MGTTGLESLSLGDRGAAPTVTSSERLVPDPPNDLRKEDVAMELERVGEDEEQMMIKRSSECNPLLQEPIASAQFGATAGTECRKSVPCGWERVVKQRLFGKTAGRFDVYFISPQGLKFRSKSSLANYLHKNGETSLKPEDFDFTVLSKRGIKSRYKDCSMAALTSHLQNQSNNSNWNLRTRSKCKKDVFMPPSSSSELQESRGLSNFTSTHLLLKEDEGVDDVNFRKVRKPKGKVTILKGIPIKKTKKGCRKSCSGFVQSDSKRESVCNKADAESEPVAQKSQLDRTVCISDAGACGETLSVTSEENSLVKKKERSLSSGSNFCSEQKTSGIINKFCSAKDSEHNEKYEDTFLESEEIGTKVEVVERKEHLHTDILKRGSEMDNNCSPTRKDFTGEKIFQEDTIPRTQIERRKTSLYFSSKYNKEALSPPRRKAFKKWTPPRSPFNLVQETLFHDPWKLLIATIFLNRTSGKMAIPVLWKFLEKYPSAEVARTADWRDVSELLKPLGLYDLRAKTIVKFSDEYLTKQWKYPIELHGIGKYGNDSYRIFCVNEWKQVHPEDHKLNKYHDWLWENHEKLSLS
# condition-context: Compound Concentration 10.0 uM, Hit No
# Description: Inhibition of MBD4 by quantifying inhibition of MBD4-mediated cleavage and dissociation of quenched duplex DNA oligonucleotides, measured as fluorescence at 594 nm. To generate a functional strand incision and increase turn-over this assay is coupled to APE1.
Where a SMILES comes first, the peptide text is derived from it. [ ]: non-standard residue; d: D form. Arg(Me) = CNC(=N)NCCC[C@H](N)C(=O)O; d3Pal = N[C@H](Cc1cccnc1)C(=O)O; azaGly = NNC(=O)O

[
  {
    "compound": "CN(C)[C@H]1CCN(c2cc(-c3ccccc3)nc3ccnn23)C1",
    "units-label": "%",
    "inhibition": 77.8
  },
  {
    "compound": "O=C(Nc1cccnn1)N1CC(C/C=C/c2cncc(Oc3ccc(C(F)(F)F)cn3)n2)C1",
    "units-label": "%",
    "inhibition": 63.3
  },
  {
    "compound": "Cc1c(F)cccc1[C@H]1COC(N)=N1",
    "units-label": "%",
    "inhibition": 5.02
  },
  {
    "compound": "Cn1cc(-c2ccc3occ(-c4cccc(-c5ccncc5)c4)c3n2)cn1",
    "units-label": "%",
    "inhibition": -1.5
  },
  {
    "compound": "CCOc1cc(N2CCC(O)CC2)ccc1Nc1ncc2c(n1)N(C)c1ccccc1C(=O)N2C",
    "units-label": "%",
    "inhibition": 17.2
  },
  {
    "compound": "O=C(O)[C@@H]1[C@@H](Cn2nnc3ccccc3c2=O)CC[C@H]1C(=O)c1ccc(OCCC2CCOCC2)cc1",
    "units-label": "%",
    "inhibition": 57.8
  },
  {
    "compound": "O=C(O)Cc1cc(I)c(Oc2ccc(O)c(I)c2)c(I)c1",
    "units-label": "%",
    "inhibition": 63.6
  },
  {
    "compound": "CCCOc1ccc2[nH]cc(C3=CCNCC3)c2n1",
    "units-label": "%",
    "inhibition": -0.485
  },
  {
    "compound": "O=C1c2ccccc2C(Cc2ccncc2)(Cc2ccncc2)c2ccccc21",
    "units-label": "%",
    "inhibition": 23.6
  },
  {
    "compound": "CCc1cc2c(c(CC)n1)CCC(=O)N2Cc1ccc(-c2ccccc2-c2nnn[nH]2)cc1",
    "units-label": "%",
    "inhibition": 2.76
  },
  {
    "compound": "C[S+]([O-])c1ccc(-c2nc(-c3ccc(F)cc3)c(-c3ccncc3)[nH]2)cc1 (stereo not given)",
    "units-label": "%",
    "inhibition": 16.5
  },
  {
    "compound": "CN(C)CCCc1cc(C(=O)Nc2ccc(-c3ccncc3)cc2)ccc1O",
    "units-label": "%",
    "inhibition": 15.3
  },
  {
    "compound": "CO[C@H]1CC[C@H](CNc2ccc(S(=O)(=O)NC(=O)c3ccc(N4CCN(CC5=C(c6ccc(Cl)cc6)CC(C)(C)CC5)CC4)cc3Oc3cnc4[nH]ccc4c3)cc2[N+](=O)[O-])CC1",
    "units-label": "%",
    "inhibition": 55.7
  },
  {
    "compound": "CN1C[C@@H](NS(=O)(=O)N(C)C)C[C@@H]2c3cccc4c3c(cn4C)C[C@H]21",
    "units-label": "%",
    "inhibition": 12.1
  },
  {
    "compound": "Cn1cc(Cl)c2c(Oc3c(F)cc(Nc4cc(Cl)nc(N)n4)cc3F)ccnc21",
    "units-label": "%",
    "inhibition": 64.2
  },
  {
    "compound": "CNC(=O)[C@H]1O[C@@H](n2cnc3c(NCc4cccc(I)c4)ncnc32)[C@H](O)[C@@H]1O",
    "units-label": "%",
    "inhibition": 10.4
  },
  {
    "compound": "O=C(Nc1cccnn1)N1CCC(=Cc2cccc(Oc3ccc(C(F)(F)F)cn3)c2)CC1",
    "units-label": "%",
    "inhibition": 65.2
  },
  {
    "compound": "NC[C@@H]1O[C@H](C23CC4CC(CC(C4)C2)C3)Cc2c1ccc(O)c2O",
    "units-label": "%",
    "inhibition": -8.04
  },
  {
    "compound": "C[C@H](CO)Nc1nc(SCc2cccc(Cl)c2F)nc2[nH]c(=O)sc12",
    "units-label": "%",
    "inhibition": 13.6
  },
  {
    "compound": "Cn1c(=O)n(CCCO)c(=O)c2c1nc(Oc1cccc(Cl)c1)n2Cc1ccc(Cl)cc1",
    "units-label": "%",
    "inhibition": 23.2
  },
  {
    "compound": "CC(C)c1cc(Oc2c(Cl)cc(-n3nc(C#N)c(=O)[nH]c3=O)cc2Cl)n[nH]c1=O",
    "units-label": "%",
    "inhibition": 53.3
  },
  {
    "compound": "O=C1c2ccc(Nc3ccc(F)cc3F)cc2CCc2ccc(OC[C@H](O)CO)cc21",
    "units-label": "%",
    "inhibition": 32.4
  },
  {
    "compound": "C/C(=N\\NC(=O)[C@@H]1C(=O)NC[C@H]1c1ccccc1)c1cccc(Br)c1",
    "units-label": "%",
    "inhibition": 0.963
  },
  {
    "compound": "O=C(O)CCc1ccc(NCc2cccc(Oc3ccccc3)c2)cc1",
    "units-label": "%",
    "inhibition": 13.6
  },
  {
    "compound": "CNC(=N)NCCC[C@H](NC(=O)[C@H](CC(C)C)NC(=O)NNC(=O)[C@H](Cc1ccccc1)NC(=O)[C@H](CO)NC(=O)[C@H](CC(N)=O)NC(=O)[C@@H](Cc1cccnc1)NC(=O)[C@H](N)Cc1ccc(O)cc1)C(=O)NCC(N)=O (H-[dY][d3Pal]NSF[azaGly]L[Arg(Me)]G-NH2)",
    "units-label": "%",
    "inhibition": 60.6
  },
  {
    "compound": "CCCCCNC(=O)N1CCC(CN(Cc2ccc(Cl)cc2)Cc2ccc([N+](=O)[O-])s2)C1 (stereo not given)",
    "units-label": "%",
    "inhibition": 57.7
  },
  {
    "compound": "COc1ccc(CC[C@@H](OC(=O)[C@H]2CCCCN2C(=O)[C@@H](c2cc(OC)c(OC)c(OC)c2)C2CCCCC2)c2cccc(OCCN3CCOCC3)c2)cc1OC",
    "units-label": "%",
    "inhibition": 63.9
  },
  {
    "compound": "Oc1cc2c(cc1O)CN(C(=S)NCCc1ccc(Cl)cc1)CCC2",
    "units-label": "%",
    "inhibition": 39.2
  },
  {
    "compound": "Cc1c(C(=O)NN2CCCCC2)nn(-c2ccc(Cl)cc2Cl)c1-c1ccc(Cl)cc1",
    "units-label": "%",
    "inhibition": 16.2
  },
  {
    "compound": "O=C(c1cc(C2CC2)on1)N(C1CCCCC1)C1CCCCC1",
    "units-label": "%",
    "inhibition": 8.05
  },
  {
    "compound": "Cc1cc(C(=O)N2CCN(C3CN(C(=O)c4ccc(-c5ccccc5)cc4)C3)CC2)no1",
    "units-label": "%",
    "inhibition": 49.9
  },
  {
    "compound": "C[C@@H](NC(=O)Cc1ccc(C2CC2)cc1)c1ccc(OCC(F)(F)F)cn1",
    "units-label": "%",
    "inhibition": 4.9
  },
  {
    "compound": "CC(C)C[C@H](NC(=O)[C@H](CC(N)=O)NC(=O)[C@@H]1CCCN1C(=O)[C@@H](N)C(C)C)C(=O)N1CCC[C@H]1C(=O)N[C@@H](CCC(N)=O)C(=O)N[C@@H](CCCNC(=N)N)C(=O)N[C@@H](Cc1ccccc1)C(N)=O",
    "units-label": "%",
    "inhibition": 7.14
  },
  {
    "compound": "Cc1cc(Cn2cnc3c2C[C@@H](C(=O)O)N(C(=O)C(c2ccccc2)c2ccccc2)C3)ccc1N(C)C",
    "units-label": "%",
    "inhibition": 46
  },
  {
    "compound": "CO[C@H]1CC[C@@H](C(=O)c2ccc3nc4c(cc3c2)CCCO4)CC1",
    "units-label": "%",
    "inhibition": -6.79
  }
]

====

inhibition values for the compounds below.
# test-target: Methyl-CpG-binding domain protein 4 (Homo sapiens);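 note: MBD4 activity read as fluorescence at 594 nm from cleavage and release of a quenched duplex DNA oligonucleotide, with APE1 coupled to incise the strand and raise turnover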
# condition-context: Compound Concentration 10.0 uM, Hit No
result-type: inhibition (%)

[
  {
    "smiles-data": "Cc1cc(-n2nc(Cc3cc(F)cc(C(F)(F)F)c3)nc2C)ccc1C(N)=O",
    "test-target": "Methyl-CpG-binding domain protein 4 (Homo sapiens)",
    "result-type": "inhibition",
    "units-label": "%",
    "result-value": 59.6
  },
  {
    "smiles-data": "COc1ccc(CN(CCN(C)C)c2ccccn2)cc1",
    "test-target": "Methyl-CpG-binding domain protein 4 (Homo sapiens)",
    "result-type": "inhibition",
    "units-label": "%",
    "result-value": -9.78
  },
  {
    "smiles-data": "CC(C)OC(=O)C1=CN(C(=O)c2ccc(F)c(F)c2)CC(C)(C)c2c1[nH]c1ccccc21",
    "test-target": "Methyl-CpG-binding domain protein 4 (Homo sapiens)",
    "result-type": "inhibition",
    "units-label": "%",
    "result-value": 66.8
  },
  {
    "smiles-data": "Cc1cc(NC(=O)NCCN2CCC(O)(Cc3ccccc3)CC2)c2ccccc2n1",
    "test-target": "Methyl-CpG-binding domain protein 4 (Homo sapiens)",
    "result-type": "inhibition",
    "units-label": "%",
    "result-value": 28.9
  },
  {
    "smiles-data": "COc1cc(C(=O)O)ncc1C#Cc1ccccc1NS(=O)(=O)c1cccc2c(N(C)C)ccnc12",
    "test-target": "Methyl-CpG-binding domain protein 4 (Homo sapiens)",
    "result-type": "inhibition",
    "units-label": "%",
    "result-value": 66.6
  },
  {
    "smiles-data": "CC1(C)N=C(C2CCCCC2)c2ccc(C#N)cc2N(c2ccc(NCCNC3CCOCC3)cc2)C1=O",
    "test-target": "Methyl-CpG-binding domain protein 4 (Homo sapiens)",
    "result-type": "inhibition",
    "units-label": "%",
    "result-value": 10.6
  },
  {
    "smiles-data": "CC1=C(C#N)C(c2ccc3[nH]nc(C)c3c2)C(C#N)=C(C)N1",
    "test-target": "Methyl-CpG-binding domain protein 4 (Homo sapiens)",
    "result-type": "inhibition",
    "units-label": "%",
    "result-value": 24.9
  },
  {
    "smiles-data": "Cc1[nH]cnc1CN1CCc2c(c3ccccc3n2C)C1=O",
    "test-target": "Methyl-CpG-binding domain protein 4 (Homo sapiens)",
    "result-type": "inhibition",
    "units-label": "%",
    "result-value": 11.9
  },
  {
    "smiles-data": "O=C(O)c1n[nH]c2c1C[C@H]1C[C@@H]21",
    "test-target": "Methyl-CpG-binding domain protein 4 (Homo sapiens)",
    "result-type": "inhibition",
    "units-label": "%",
    "result-value": -4.32
  },
  {
    "smiles-data": "COc1ccccc1-c1cc(Nc2cccc(CS(N)(=O)=O)c2)ncn1",
    "test-target": "Methyl-CpG-binding domain protein 4 (Homo sapiens)",
    "result-type": "inhibition",
    "units-label": "%",
    "result-value": -4.72
  }
]
